Assay: Therapeutic index, ratio of HC50 for human erythrocytes to MIC for linezolid-methicillin-resistant Staphylococcus aureus AOUC 0915
Format: toxicity
readout name: selectivity ratio

What does the record list as selectivity ratio for `CCCCCCCCCCCCNC(=O)CN(NC(=O)C(C)(C)C)C(=O)CN.Cl` ?
99

What does the record list as selectivity ratio for `CCCCCCCCCCCCNC(=O)CN(NC(=O)c1ccccc1)C(=O)CN.Cl` ?
49

###

System: Enterococcus faecium
Assay: Antibacterial activity against Enterococcus faecium 135562 (35C) assessed as inhibition of visible growth after 24 hrs by broth microdilution method
Format: functional
Consider the cut-off 30 µg/mL. If the recorded MIC is strictly smaller, the label is 1; if not, the label is 0.

For this molecule, is MIC lower than 30 µg/mL? `CCCCCCCCCCCCNC(=O)CN(C(=O)CN)N(C)C(=O)C(C)(C)C`
1

For this molecule, is MIC lower than 30 µg/mL? `CCCCCCCCCCCCCCCCCCNC(=O)CN(NC(=O)CCCCCCCCCCC)C(=O)CN.Cl`
0

For this molecule, is MIC lower than 30 µg/mL? `CCCCCCCCNC(=O)CN(C(=O)CN)N(C)C(=O)OCc1ccccc1`
0

For this molecule, is MIC lower than 30 µg/mL? `CCCCCCCCCCCCNC(=O)CN(C(=O)CN)N(C)C(=O)OCc1ccccc1`
1

For this molecule, is MIC lower than 30 µg/mL? `CCCCCCCCCCCCCCCCCCNC(=O)CN(NC(C)=O)C(=O)CN.Cl`
0

For this molecule, is MIC lower than 30 µg/mL? `CCCCCCCCCCCCNC(=O)CN(NC(=O)CCCCCCC)C(=O)CN.Cl`
1

For this molecule, is MIC lower than 30 µg/mL? `CCCCCCCCCCCCCCCCCC(=O)NN(CC(=O)NCCC)C(=O)CN.Cl`
1

For this molecule, is MIC lower than 30 µg/mL? `CCCCCCCCNC(=O)CN(NC(=O)C(C)(C)C)C(=O)CN.Cl`
0

For this molecule, is MIC lower than 30 µg/mL? `CCCCCCCCCCCCNC(=O)CN(NC(=O)C(C)(C)C)C(=O)CN.Cl`
1

For this molecule, is MIC lower than 30 µg/mL? `CCCCCCCCNC(=O)CN(C(=O)CN)N(C)C(=O)C(C)(C)C`
0

###

Exercise: state measured HC50 at 1 h for each of the molecules provided.
Test: Hemolytic activity against human erythrocytes measured after 1 hr by microplate reader based spectrophotometric analysis
Type: ADME, cell-based, Erythrocyte
Give your result in µg/mL as a bare value.

What does the record list as HC50 at 1 h for `CCCCCCCCCCCCCCCCCCNC(=O)CN(NC(=O)CCCCCCCCCCC)C(=O)CN.Cl` ?
364

What does the record list as HC50 at 1 h for `CCCCCCCCNC(=O)CN(NC(C)=O)C(=O)CN.Cl` ?
223

What does the record list as HC50 at 1 h for `CCCNC(=O)CN(NC(C)=O)C(=O)CN.O=C(O)C(F)(F)F` ?
2700

What does the record list as HC50 at 1 h for `CCCCCCCCCCCC(=O)NN(CC(=O)NCCCCCCCC)C(=O)CN.Cl` ?
486

What does the record list as HC50 at 1 h for `CCCCCCCCCCCCCCCCCCNC(=O)CN(NC(=O)OCc1ccccc1)C(=O)CN.Cl` ?
243

What does the record list as HC50 at 1 h for `CCCCCCCCCCCCNC(=O)CN(NC(=O)c1ccccc1)C(=O)CN.Cl` ?
195

What does the record list as HC50 at 1 h for `CCCCCCCCCCCCCCCCCC(=O)NN(CC(=O)NCCC)C(=O)CN.Cl` ?
234

What does the record list as HC50 at 1 h for `CCCCCCCCCCCCCCCCCC(=O)NN(CC(=O)NCCCCCCCC)C(=O)CN.Cl` ?
200

What does the record list as HC50 at 1 h for `CCCCCCCCCCCCNC(=O)CN(NC(=O)OCc1ccccc1)C(=O)CN.Cl` ?
86

What does the record list as HC50 at 1 h for `CCCCCCCC(=O)NN(CC(=O)NCCC)C(=O)CN.Cl` ?
433

###

Experiment: Retention time of the compound by RP-HPLC analysis
Format: physicochemical
readout name: Retention_time (min)
Give your result in min as a bare value.

What does the record list as Retention_time for `CCCCCCCCCCCCCCCCCCNC(=O)CN(NC(=O)OCc1ccccc1)C(=O)CN.Cl` ?
30.9

What does the record list as Retention_time for `CCCCCCCCNC(=O)CN(C(=O)CN)N(C)C(=O)C(C)(C)C` ?
11.7

What does the record list as Retention_time for `CCCCCCCCCCCCNC(=O)CN(NC(=O)CCCCCCC)C(=O)CN.Cl` ?
24

What does the record list as Retention_time for `CCCCCCCCNC(=O)CN(C(=O)CN)N(C)C(C)=O` ?
9.1

What does the record list as Retention_time for `CCCCCCCCCCCCCCCCCC(=O)NN(CC(=O)NCCCCCCCCCCCC)C(=O)CN.Cl` ?
35.8

What does the record list as Retention_time for `CCCCCCCCCCCCCCCCCCNC(=O)CN(NC(C)=O)C(=O)CN.Cl` ?
28

What does the record list as Retention_time for `CCCCCCCCCCCCNC(=O)CN(NC(=O)OCc1ccccc1)C(=O)CN.Cl` ?
21.2

What does the record list as Retention_time for `CCCCCCCCCCCCNC(=O)CN(NC(=O)CCCCCCCCCCC)C(=O)CN.Cl` ?
29.1

What does the record list as Retention_time for `CCCCCCCCCCCCNC(=O)CN(C(=O)CN)N(C)C(=O)C(C)(C)C` ?
18.9

What does the record list as Retention_time for `CCCCCCCCNC(=O)CN(C(=O)CN)N(C)C(=O)OCc1ccccc1` ?
13.8

What does the record list as Retention_time for `CCCCCCCCNC(=O)CN(NC(=O)C(C)(C)C)C(=O)CN.Cl` ?
11.7

What does the record list as Retention_time for `CCCCCCCCCCCCNC(=O)CN(NC(=O)c1ccccc1)C(=O)CN.Cl` ?
19.7

What does the record list as Retention_time for `CCCCCCCCCCCCNC(=O)CN(C(=O)CN)N(C)C(=O)OCc1ccccc1` ?
20.7

What does the record list as Retention_time for `CCCCCCCCCCCC(=O)NN(CC(=O)NCCC)C(=O)CN.Cl` ?
16.6

What does the record list as Retention_time for `CCCCCCCCCCCC(=O)NN(CC(=O)NCCCCCCCC)C(=O)CN.Cl` ?
23.5

What does the record list as Retention_time for `CCCCCCCCNC(=O)CN(NC(C)=O)C(=O)CN.Cl` ?
9.3

What does the record list as Retention_time for `CCCCCCCCCCCCNC(=O)CN(NC(=O)C(C)(C)C)C(=O)CN.Cl` ?
19.8

What does the record list as Retention_time for `CCCCCCCCNC(=O)CN(NC(=O)c1ccccc1)C(=O)CN.Cl` ?
12.3

What does the record list as Retention_time for `CCCCCCCCCCCCCCCCCC(=O)NN(CC(=O)NCCCCCCCC)C(=O)CN.Cl` ?
32.2

###

Test system: Enterococcus faecium
Assay: Antibacterial activity against Enterococcus faecium 135562 (35C) assessed as inhibition of visible growth after 24 hrs by broth microdilution method
Assay type: functional
readout name: MIC

Under Enterococcus faecium: MIC value of `CCCNC(=O)CN(NC(C)=O)C(=O)CN.O=C(O)C(F)(F)F` ?
2050 µg/mL

Under Enterococcus faecium: MIC value of `CCCCCCCCCCCCNC(=O)CN(NC(=O)CCCCCCCCCCC)C(=O)CN.Cl` ?
128 µg/mL

Under Enterococcus faecium: MIC value of `CCCCCCCC(=O)NN(CC(=O)NCCC)C(=O)CN.Cl` ?
1020 µg/mL

Under Enterococcus faecium: MIC value of `CCCCCCCCCCCCCCCCCC(=O)NN(CC(=O)NCCCCCCCCCCCC)C(=O)CN.Cl` ?
256 µg/mL

Under Enterococcus faecium: MIC value of `CCCCCCCCCCCC(=O)NN(CC(=O)NCCC)C(=O)CN.Cl` ?
64 µg/mL

Under Enterococcus faecium: MIC value of `CCCNC(=O)CN(NC(=O)OCc1ccccc1)C(=O)CN.Cl` ?
512 µg/mL

Under Enterococcus faecium: MIC value of `CCCCCCCCNC(=O)CN(NC(=O)OCc1ccccc1)C(=O)CN.Cl` ?
64 µg/mL

Under Enterococcus faecium: MIC value of `CCCCCCCCCCCC(=O)NN(CC(=O)NCCCCCCCC)C(=O)CN.Cl` ?
8 µg/mL

###

Assay: Hemolytic activity against human erythrocytes measured after 1 hr by microplate reader based spectrophotometric analysis
Format: ADME, cell-based, Erythrocyte
Consider the cut-off 400 µg/mL. If the recorded HC50 at 1 h is strictly smaller, the label is TRUE; if not, the label is FALSE.

For this compound, is HC50 at 1 h lower than 400 µg/mL? `CCCCCCCCCCCC(=O)NN(CC(=O)NCCC)C(=O)CN.Cl`
TRUE

For this compound, is HC50 at 1 h lower than 400 µg/mL? `CCCCCCCCCCCCCCCCCC(=O)NN(CC(=O)NCCCCCCCCCCCC)C(=O)CN.Cl`
TRUE

For this compound, is HC50 at 1 h lower than 400 µg/mL? `CCCCCCCCCCCCNC(=O)CN(NC(=O)CCCCCCC)C(=O)CN.Cl`
TRUE

For this compound, is HC50 at 1 h lower than 400 µg/mL? `CCCCCCCCNC(=O)CN(NC(=O)OCc1ccccc1)C(=O)CN.Cl`
TRUE

For this compound, is HC50 at 1 h lower than 400 µg/mL? `CCCNC(=O)CN(NC(=O)OCc1ccccc1)C(=O)CN.Cl`
FALSE

For this compound, is HC50 at 1 h lower than 400 µg/mL? `CCCCCCCCCCCCCCCCCCNC(=O)CN(NC(=O)CCCCCCC)C(=O)CN.Cl`
TRUE

For this compound, is HC50 at 1 h lower than 400 µg/mL? `CCCCCCCCNC(=O)CN(NC(=O)c1ccccc1)C(=O)CN.Cl`
TRUE

For this compound, is HC50 at 1 h lower than 400 µg/mL? `CCCCCCCCNC(=O)CN(NC(=O)C(C)(C)C)C(=O)CN.Cl`
FALSE

For this compound, is HC50 at 1 h lower than 400 µg/mL? `CCCCCCCCCCCCNC(=O)CN(NC(=O)CCCCCCCCCCC)C(=O)CN.Cl`
FALSE

For this compound, is HC50 at 1 h lower than 400 µg/mL? `CCCCCCCCCCCCNC(=O)CN(NC(C)=O)C(=O)CN.Cl`
TRUE

For this compound, is HC50 at 1 h lower than 400 µg/mL? `CCCCCCCCNC(=O)CN(NC(=O)CCCCCCC)C(=O)CN.Cl`
TRUE

For this compound, is HC50 at 1 h lower than 400 µg/mL? `CCCCCCCCCCCCCCCCCCNC(=O)CN(NC(C)=O)C(=O)CN.Cl`
TRUE

Hello, the source for this data is ChEMBL document CHEMBL4680184, in case you need it.
